Where do these numbers come from? They come from ChEMBL document CHEMBL4118225.

molecular target: Tyrosine-protein kinase JAK2 (Homo sapiens); experiment: Inhibition of kinase tracer-05 binding to C-terminal NanoLuc tagged full length JAK2 (unknown origin) expressed in HEK cells by NanoBRET assay
Sequence (O60674 whole entry): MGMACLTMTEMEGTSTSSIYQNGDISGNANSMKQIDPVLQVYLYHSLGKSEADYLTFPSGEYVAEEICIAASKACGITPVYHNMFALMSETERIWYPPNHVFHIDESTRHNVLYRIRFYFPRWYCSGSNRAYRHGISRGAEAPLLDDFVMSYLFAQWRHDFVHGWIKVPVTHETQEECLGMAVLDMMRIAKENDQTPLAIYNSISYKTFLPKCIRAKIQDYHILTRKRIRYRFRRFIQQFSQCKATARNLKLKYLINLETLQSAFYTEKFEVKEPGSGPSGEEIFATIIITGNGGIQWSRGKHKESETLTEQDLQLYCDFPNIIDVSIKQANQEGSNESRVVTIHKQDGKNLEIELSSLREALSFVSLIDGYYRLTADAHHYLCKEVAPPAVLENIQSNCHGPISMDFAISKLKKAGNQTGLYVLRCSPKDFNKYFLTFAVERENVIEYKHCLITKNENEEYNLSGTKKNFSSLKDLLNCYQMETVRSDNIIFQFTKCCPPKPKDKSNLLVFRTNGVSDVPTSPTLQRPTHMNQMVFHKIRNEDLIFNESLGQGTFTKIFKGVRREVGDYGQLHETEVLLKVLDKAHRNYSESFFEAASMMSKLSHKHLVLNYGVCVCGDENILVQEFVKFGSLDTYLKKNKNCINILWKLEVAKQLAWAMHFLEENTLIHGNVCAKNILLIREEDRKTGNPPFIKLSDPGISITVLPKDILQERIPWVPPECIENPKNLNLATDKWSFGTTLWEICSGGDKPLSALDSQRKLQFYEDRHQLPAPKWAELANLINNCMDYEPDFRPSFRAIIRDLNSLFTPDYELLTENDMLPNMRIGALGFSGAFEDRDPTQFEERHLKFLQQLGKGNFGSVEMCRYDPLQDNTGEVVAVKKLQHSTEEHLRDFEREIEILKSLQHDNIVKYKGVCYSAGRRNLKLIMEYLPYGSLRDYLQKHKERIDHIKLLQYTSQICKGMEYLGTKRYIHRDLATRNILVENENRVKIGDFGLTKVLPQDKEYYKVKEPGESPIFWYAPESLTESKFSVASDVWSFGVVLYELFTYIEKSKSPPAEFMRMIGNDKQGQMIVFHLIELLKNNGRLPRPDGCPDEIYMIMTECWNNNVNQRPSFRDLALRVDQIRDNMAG
MEASURED PROPERTY: pEC50
Numbers only, as −log10 of the molar value.

N#C/C=C/c1ccc(-c2nc3cnc4[nH]ccc4c3n2C2CCCCC2)o1 | 5.11

Kindly review the next compound as well.
For reference, reported pEC50 for N#CC(C#N)=Cc1ccc(-c2nc3cnc4[nH]ccc4c3n2C2CCCCC2)o1 stands at 6.20

---

experiment: Aqueous solubility in pH 7.4 PBS buffer by HPLC analysis; assay type: physicochemical
MEASURED PROPERTY: solubility (µM)
Give bare numbers, in µM.

CN1CCN(C(=O)C(C#N)=Cc2ccc(-c3nc4cnc5[nH]ccc5c4n3C3CCCCC3)o2)CC1 | 248

Kindly review the next molecule as well.
For reference, reported solubility for CN(C)C(=O)C(C#N)=Cc1ccc(-c2nc3cnc4[nH]ccc4c3n2C2CCCCC2)o1 stands at 56

---

experiment: Metabolic stability in mouse liver microsomes assessed as parent compound remaining at 100 uM after 180 mins in presence of NADPH regenerating system by LC-MS analysis; assay type: ADME, microsome; details: read-out: Stability
Task for the reader: assign each of the following molecules its reported remaining at 3 h, 100 µM.
One number for each entry, in %.

N#C/C=C/c1ccc(-c2nc3cnc4[nH]ccc4c3n2C2CCCCC2)o1 | 53.9
N#CC(C#N)=Cc1ccc(-c2nc3cnc4[nH]ccc4c3n2C2CCCCC2)o1 | 11
CN1CCN(C(=O)C(C#N)=Cc2ccc(-c3nc4cnc5[nH]ccc5c4n3C3CCCCC3)o2)CC1 | 6.9

For reference, reported remaining at 3 h, 100 µM for CN(C)C(=O)C(C#N)=Cc1ccc(-c2nc3cnc4[nH]ccc4c3n2C2CCCCC2)o1 stands at 58

---

molecular target: Tyrosine-protein kinase JAK2 (Homo sapiens)
Task for the reader: assign each of the following compounds its reported pIC50.
Numbers only, as −log10 of the molar value.

Take each entry in turn and give its pIC50.
1. CN1CCN(C(=O)C(C#N)=Cc2ccc(-c3nc4cnc5[nH]ccc5c4n3C3CCCCC3)o2)CC1
2. N#CCCc1ccc(-c2nc3cnc4[nH]ccc4c3n2C2CCCCC2)o1
3. CN(C)C(=O)CCc1ccc(-c2nc3cnc4[nH]ccc4c3n2C2CCCCC2)o1

Solution:
6.12
7.32
6.74

---

Biological target: Tyrosine-protein kinase JAK3 (Homo sapiens, UniProt P52333)
Sequence (P52333 whole entry): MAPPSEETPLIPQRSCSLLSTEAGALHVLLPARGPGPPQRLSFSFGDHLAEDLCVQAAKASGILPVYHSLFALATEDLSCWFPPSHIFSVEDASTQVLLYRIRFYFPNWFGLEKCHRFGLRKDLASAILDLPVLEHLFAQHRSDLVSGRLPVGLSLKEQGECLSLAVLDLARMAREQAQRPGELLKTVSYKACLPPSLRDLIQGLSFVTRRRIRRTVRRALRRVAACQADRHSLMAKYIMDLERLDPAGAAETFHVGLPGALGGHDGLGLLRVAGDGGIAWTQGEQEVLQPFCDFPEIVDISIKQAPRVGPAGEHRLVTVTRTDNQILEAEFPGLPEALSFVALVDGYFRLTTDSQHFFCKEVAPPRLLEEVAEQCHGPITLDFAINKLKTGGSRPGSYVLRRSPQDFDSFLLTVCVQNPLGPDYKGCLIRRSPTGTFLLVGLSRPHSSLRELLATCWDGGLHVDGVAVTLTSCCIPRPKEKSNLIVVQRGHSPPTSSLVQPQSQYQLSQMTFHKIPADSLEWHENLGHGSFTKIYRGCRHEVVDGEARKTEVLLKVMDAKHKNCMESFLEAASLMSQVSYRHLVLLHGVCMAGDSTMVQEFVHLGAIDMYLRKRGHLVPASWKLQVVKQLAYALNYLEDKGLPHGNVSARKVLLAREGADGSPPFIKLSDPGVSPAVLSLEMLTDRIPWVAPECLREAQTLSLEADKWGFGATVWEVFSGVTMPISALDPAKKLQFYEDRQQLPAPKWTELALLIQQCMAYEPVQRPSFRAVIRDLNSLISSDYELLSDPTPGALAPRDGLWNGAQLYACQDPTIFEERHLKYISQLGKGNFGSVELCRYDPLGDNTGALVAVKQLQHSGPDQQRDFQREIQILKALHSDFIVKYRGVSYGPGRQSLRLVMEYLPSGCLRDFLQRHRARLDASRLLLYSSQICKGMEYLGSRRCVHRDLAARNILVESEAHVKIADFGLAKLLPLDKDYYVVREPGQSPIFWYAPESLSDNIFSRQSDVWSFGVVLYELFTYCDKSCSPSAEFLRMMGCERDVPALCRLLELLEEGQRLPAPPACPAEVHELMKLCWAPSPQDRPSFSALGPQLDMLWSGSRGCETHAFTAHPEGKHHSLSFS
MEASURED PROPERTY: EC50 (nM)
One number for each entry, in nM.

Worked cases, EC50 given:
N#CC(C#N)=Cc1ccc(-c2nc3cnc4[nH]ccc4c3n2C2CCCCC2)o1 | 678
N#C/C=C/c1ccc(-c2nc3cnc4[nH]ccc4c3n2C2CCCCC2)o1 | 740

Kindly review the next compound as well.
For reference, reported EC50 for CN1CCN(C(=O)C(C#N)=Cc2ccc(-c3nc4cnc5[nH]ccc5c4n3C3CCCCC3)o2)CC1 stands at 257

---

molecular target: UniProt P52333
Task for the reader: assign each of the following compounds its reported IC50.
Answers are plain numbers, in nM.

Worked cases, IC50 given:
N#CCCc1cccc(-c2nc3cnc4[nH]ccc4c3n2C2CCCCC2)c1 | 505
N#CCCc1ccc(-c2nc3cnc4[nH]ccc4c3n2C2CCCCC2)cc1 | 436

For reference, reported IC50 for CN(C)C(=O)CCc1ccc(-c2nc3cnc4[nH]ccc4c3n2C2CCCCC2)o1 stands at 181
